- Test system: NCI/ADR-RES ovarian
- Assay Overview: NCI tumour cell line growth inhibition, 48 h
Where a SMILES comes first, the peptide text is derived from it. The star is where a group is joined. Boc = CC(C)(C)OC(=O)*; OSu = O=C1CCC(=O)N1O*
Measurement Kind: TGI

INSERT INTO assay_data (compound, endpoint_value) VALUES
  ('CCOC(=O)c1cc(-c2cc(OC)c(OC)c([N+](=O)[O-])c2)c([N+](=O)[O-])n1C', '> 10 µM');

Lab note: each compound below needs its TGI filled in.
1. CC(NC(=O)C(NC(=O)OC(C)(C)C)C(C)C)C(=O)NCC(=O)ON1C(=O)CCC1=O (stereo not drawn) (Boc-Val-Ala-Gly-OSu; configuration not given here)
2. COC(=O)[C@@H]1[C@@H](c2cccc(Cl)c2)[C@H](C(=O)OC)C2(C[C@@]1(C)O)NCCS2 (some centres undefined)
3. Nc1ncnc2c1nnn2C1C=CC(COS(N)(=O)=O)C1 (centres undefined)

1: > 100 µM; 2: > 100 µM; 3: > 100 µM

###

- Tested on: MALME-3M melanoma
- Assay Overview: NCI tumour cell line growth inhibition, 48 h
Measurement Kind: GI50

In the examples that follow, each entry is paired with its recorded GI50.
INSERT INTO assay_data (compound, endpoint_value) VALUES
  ('CNC(=O)c1ccc(N2CCN(Cc3ccc4nc(C)c(=O)[nH]c4c3F)CC2)c(F)n1', '> 100 µM'),
  ('CC[N+](CC)=c1sc2c(s1)C(c1ccc(Cl)cc1)Oc1ccc(Cl)cc1-2 (centres undefined)', '1.44 µM'),
  ('Cc1cc(S(=O)(=O)Nc2nc3cscc3c(=O)n2Cc2ccccc2)c(S)cc1Cl', '28.7 µM');

Note: attention shifts to another entry.
Find the recorded GI50 belonging to [Cl-].[O-]/N=C(\c1ccccc1)c1ccccn1.[O-]/N=C(\c1ccccc1)c1ccccn1.[O-]/N=C(\c1ccccc1)c1ccccn1.[Sm+3] and report it.
24.6 µM

###

- System: MOLT-4 leukemia
- Assay Overview: NCI tumour cell line growth inhibition, 48 h
Task for the reader: assign each of the following compounds its reported TGI.

In the examples that follow, each entry is paired with its recorded TGI.
INSERT INTO measurements (compound, measurement_kind, endpoint_value) VALUES
  ('CC(C)CC(NC(=O)c1cccc(O)c1O)C(=O)NCc1cc(CNC(=O)C(CC(C)C)NC(=O)c2cccc(O)c2O)cc(CNC(=O)C(CC(C)C)NC(=O)c2cccc(O)c2O)c1 (stereo not given)', 'TGI', '37.9 µM'),
  ('CCN(CC)CC1CCCCN1CC(=O)N1c2ccccc2NC(=O)CC1C (stereo not given)', 'TGI', '> 100 µM');

Lab note: each compound below needs its TGI filled in.
1. COc1ccc(-c2cn[nH]c2-c2cc(OC)c3c(c2)OCO3)cc1
2. O=C(O)CCCCCCC[C@H]1S[C@H]1CCCCCCO
3. Cc1cc2c(ccc3c(C)cc(=O)oc32)o1

1. 15.1 µM
2. > 100 µM
3. > 100 µM

Lab note: each compound below needs its TGI filled in.
1. Cc1ccsc1/C=N/Nc1nc2ccccc2s1
2. CN1CCCC2(CCCc3ccccc32)C1 (stereo not given)
3. Cc1nn(-c2nc3ccccc3[nH]2)c(N)c1-c1ccc(Cl)cc1

1. 31.3 µM
2. > 100 µM
3. > 100 µM

Lab note: each compound below needs its TGI filled in.
1. COCCCNC(=O)C1C(=O)N(CCCOC)C(=O)/C1=N\N (stereo not given)
2. CO[C@H]1/C=C/O[C@@]2(C)Oc3c(C)c(O)c4c(c3C2=O)C(=O)C(/C=N/N(c2ccccc2)c2ccccc2)=C(NC(=O)/C(C)=C\C=C\[C@H](C)[C@H](O)[C@@H](C)[C@@H](O)[C@@H](C)[C@H](OC(C)=O)[C@@H]1C)C4=O
3. COC(=O)CCc1c[nH]c2ccc(N(CCCl)CCCl)cc12
4. COc1ccc(/C=N/n2cnc3c(sc(=S)n3-c3ccccc3)c2=O)cc1
5. Nc1ccc(C2=NN(c3ccccc3)C(c3ccc(Cl)cc3)C2)cc1 (stereo not given)

["> 100 µM", "6.07 µM", "> 100 µM", "90.9 µM", "6.61 µM"]

Lab note: each compound below needs its TGI filled in.
1. CC[C@]12C=CCN3CC[C@@]4(c5cc(Br)c(OC)cc5N(C)[C@H]4[C@@](O)(C(=O)NN)[C@@H]1O)[C@@H]32
2. Cc1c(Cl)c2ccccc2n1S(=O)(=O)c1ccccc1
3. COc1ccc(-c2cc(=O)c3ccc(C)nc3[nH]2)cc1
4. CC(C(=O)c1ccccc1)C(c1ccccc1)N1CCOCC1 (stereo not given)
5. Cc1cc(S(=O)(=O)Nc2nc3cscc3c(=O)n2Cc2ccccc2)c(S)cc1Cl

["> 100 µM", "> 100 µM", "> 100 µM", "> 100 µM", "32.5 µM"]

###

- Tested on: U251 CNS
- Assay Overview: NCI tumour cell line growth inhibition, 48 h
1.0 means recorded TGI is 20 µM or above; 0.0 means it is below 20 µM.

Take a look at these entries with their results.
INSERT INTO assay_data (compound, category) VALUES
  ('CC[N+](CC)=c1sc2c(s1)C(c1ccc(Cl)cc1)Oc1ccc(Cl)cc1-2 (stereo not given)', 0.0),
  ('O=C(/C=C/c1ccc(O)c(O)c1)OCCCc1ccccc1', 1.0),
  ('Nc1ncnc2c1nnn2C1C=CC(COS(N)(=O)=O)C1 (stereo not given)', 1.0);

Determine whether measured TGI meets or exceeds 20 µM for C[C@]12CCC(=O)C=C1CC[C@@H]1[C@@H]2[C@@H](O)C[C@@]2(C)[C@H]1CC[C@]2(O)C(=O)COC(=O)COCC(=O)O
1.0

Determine whether measured TGI meets or exceeds 20 µM for CNC(=O)c1ccc(N2CCN(Cc3ccc4nc(C)c(=O)[nH]c4c3F)CC2)c(F)n1
1.0

Determine whether measured TGI meets or exceeds 20 µM for Cc1cccc2c(=O)c([Se]c3coc4c(C)cccc4c3=O)coc12
1.0

Determine whether measured TGI meets or exceeds 20 µM for Cc1ccc(N2Cc3c(ccc4ccccc34)OP2(=O)Oc2ccc(Cl)c(C)c2)cc1 (stereo not given)
1.0

Determine whether measured TGI meets or exceeds 20 µM for Oc1ccc(-c2nc(-c3cccnc3)c(-c3ccc(Cl)cc3)[nH]2)cc1O
1.0

Determine whether measured TGI meets or exceeds 20 µM for C=C(c1ccc2nc(NC(=O)OC)[nH]c2c1)c1cccs1
0.0

Determine whether measured TGI meets or exceeds 20 µM for Cc1ccc(S(=O)(=O)NC(=O)C2C(=O)CC3(CCCCC3)CC2=O)cc1
1.0

###

- Test system: UACC-62 melanoma
- Assay Overview: NCI tumour cell line growth inhibition, 48 h; in the data active = GI50 below about 0.43 µM; inactive = the rest
// allowed return values: True (active), False (inactive)

Take a look at these entries with their results.
INSERT INTO assay_data (molecule, category) VALUES
  ('CN(C)CCCOc1ccc(-c2ccc3ncc4c(c3c2)n(C2CCOCC2)c(=O)n4C)cn1', 'False'),
  ('CCOC(=O)c1sc(-c2ccc(OS(=O)(=O)c3ccc(Br)s3)c(C=O)c2)nc1C', 'False'),
  ('COC(=O)[C@@H](C)C[C@H](Cc1ccccc1)NC(=O)c1csc(CC[C@H](C(C)C)N(C)C(=O)[C@@H](NC(=O)[C@H]2CCCCN2C)C(C)C)n1', 'True'),
  ('COc1ccc(S(=O)(=O)N2CC(C)(C)CN(S(=O)(=O)c3ccc(OC)cc3)C2C(=O)NO)cc1', 'False'),
  ('Cc1ccc(C)c2c1C(O)(C#Cc1ccccc1)c1ccccc1C2(O)C#Cc1ccccc1 (centres undefined)', 'False'),
  ('CCC[CH2][Sn]([CH2]CCC)([CH2]CCC)[O]c1ccc(Cl)cc1Cl', 'True');

Could you please tell me the result logged for C[N-]c1nnnn1C.[Au+].c1ccc([PH+](c2ccccc2)c2ccccc2)cc1 in this assay?
False

Could you please tell me the result logged for Cc1nc(SCC(=O)Nc2nc(-c3ccc(Cl)cc3)cs2)n(Nc2ccccc2)c1C in this assay?
False

Could you please tell me the result logged for CCOc1ccc2nc(SCc3nc4n(n3)S(=O)(=O)c3ccccc3N4C)sc2c1 in this assay?
False

###

- System: UACC-62 melanoma
- Assay Overview: NCI tumour cell line growth inhibition, 48 h
Task for the reader: assign each of the following molecules its reported TGI.

INSERT INTO results (molecule, endpoint_value) VALUES
  ('Cc1ccc(SC(CCC(Sc2ccc(C)cc2)Sc2ccc(C)cc2)Sc2ccc(C)cc2)cc1', '> 100 µM'),
  ('COc1ccc(OC)c2c1CC(C(=O)O)(C(=O)O)CC2=O', '> 100 µM'),
  ('CCN(Cc1cccc(F)c1)c1ccc(CO)c(Cl)c1', '0.649 µM'),
  ('O=C(NCCC1([N+](=O)[O-])CCN(C(=O)c2ccccc2)CC1)c1ccccc1', '> 100 µM'),
  ('CC[C@H](O)[C@H](C)C=C1SCCCS1', '> 100 µM'),
  ('Cc1sc2nc(-c3ccncc3)c(/C=N/N=C(N)N)n2c1C', '50.3 µM'),
  ('CC(C)(C)N=NNc1cn(C2OC(CO)C(O)C2O)c(=O)[nH]c1=O (configuration not stated)', '> 100 µM'),
  ('CCCSc1ccc2[nH]c(N3C(=O)/C(=C/c4ccco4)N=C3c3ccccc3)cc2c1', '> 50 µM'),
  ('C[C@]12CC[C@H]3[C@@H](CC=C4C[C@@H](N5CCCC5)CC[C@@]43C)[C@@H]1C[C@H](N1CCOCC1)[C@@H]2O', '> 100 µM'),
  ('CCOc1ccc2nc(SCc3nc4n(n3)S(=O)(=O)c3ccccc3N4C)sc2c1', '> 100 µM');

Lab note: each molecule below needs its TGI filled in.
1. O=S(=O)(c1ccccc1)n1c2ccc(Br)cc2c2nc3ccccc3nc21
2. COC(=O)[C@]1(c2cc3ccccc3n2S(=O)(=O)c2ccccc2)CC2CN(C(C)=O)C1CC2=O (some centres not stated)

["> 100 µM", "3.27 µM"]
